I'd appreciate it if you could supply pIC50 values for the items below.
Molecular target: UniProt P08176
Sequence (P08176 99-320): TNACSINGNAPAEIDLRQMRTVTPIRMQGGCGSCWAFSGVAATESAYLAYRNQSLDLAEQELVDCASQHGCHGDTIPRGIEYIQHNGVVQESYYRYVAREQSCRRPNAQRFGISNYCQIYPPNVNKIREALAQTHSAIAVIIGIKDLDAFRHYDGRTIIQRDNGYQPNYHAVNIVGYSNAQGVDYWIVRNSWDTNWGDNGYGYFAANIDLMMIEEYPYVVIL
Assay: Der p 1 enzyme activity assay (FRET fluorogenic substrate)
Assay type: biochemical
Conditions: threshold stated in text; read-out: Der p 1 IC50
pIC50: −log10 of the molar value.

Look up pIC50 of `CC(C)[C@H](NC(=O)[C@H](C)NC(=O)[C@@H](NC(=O)c1ccnc2ccccc12)C(C)(C)C)C(=O)C(=O)NC1CC1` and report it.
> 7.70

Look up pIC50 of `CC(C)[C@H](NC(=O)[C@H](C)NC(=O)[C@@H](NC(=O)c1cccc2ccccc12)C(C)(C)C)C(=O)C(=O)NC1CCCCC1` and report it.
> 6.70

Look up pIC50 of `CC(C)[C@H](NC(=O)[C@H](C)NC(=O)[C@@H](NC(=O)c1ccccc1)C(C)(C)C)C(=O)C(=O)NCc1cccc(C(N)=O)c1` and report it.
> 7.70
